FYI, the data here is from patent US8252781B2.

Listed next: entries and their corresponding IC50.
target: human 11β-HSD1 (Homo sapiens, UniProt P28845); construct: The obtained PCR products of about 0.9 kbp, 1.2 kbp, and 0.9 kbp were subcloned into an expression vector pcDNA3.1+/Zeo; expressed in transfected cells; experiment: Enzyme inhibitory activity, human 11β-HSD1 (lysate of stably expressing HEK293 cells, cortisol by competitive ELISA); format: biochemical; conditions: Table 1; human 11β-HSD1, cell lysate, 37° C. for 1 hour; read-out: h HSD1 in vitro assay (IC50 uM)
Sequence (P28845 whole entry): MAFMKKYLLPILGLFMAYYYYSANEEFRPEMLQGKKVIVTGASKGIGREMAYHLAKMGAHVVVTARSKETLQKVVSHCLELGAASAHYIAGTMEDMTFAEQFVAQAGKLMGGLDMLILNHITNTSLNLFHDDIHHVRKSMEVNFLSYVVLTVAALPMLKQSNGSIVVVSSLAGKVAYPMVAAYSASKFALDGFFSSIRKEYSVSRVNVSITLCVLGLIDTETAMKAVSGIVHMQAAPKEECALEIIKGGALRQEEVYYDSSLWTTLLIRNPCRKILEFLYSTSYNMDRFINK
measurement.kind: IC50 (µM)

| molecule | unit.text | reading |
| --- | --- | --- |
| CC1(C)C(=O)N([C@H]2C3CC4CC2C[C@](Cl)(C4)C3)N1c1ccc(F)c2ccccc12 [Example 255] | µM | 0.003 |
| CC1(C)C(=O)N(C2CCCCCCC2)N1C(=O)c1ccccc1N [Example 153] | µM | 0.14 |
| COc1ccccc1N1N(C2CCCCCCC2)C(=O)C1(C)C [Example 220] | µM | 0.056 |
| COc1ccccc1N1N([C@H]2C3CC4CC2C[C@](Cl)(C4)C3)C(=O)C1(C)C [Example 250] | µM | 0.042 |
| Cc1cccc(C(=O)N2N(C3CCCCCCC3)C(=O)C2(C)C)c1 [Example 151] | µM | 0.81 |
| CC1(C)C(=O)N(C2C3CC4CC(C3)CC2C4)N1Cc1ccc(Cl)cc1Cl (stereo not drawn) [Example 52] | µM | 0.078 |
| CCc1ccccc1CN1N(C2C3CC4CC(C3)CC2C4)C(=O)C1(C)C (stereo not drawn) [Example 50] | µM | 0.042 |
| CC1(C)C(=O)N(C2C3CC4CC(C3)CC2C4)N1C(=O)c1ccccc1N (stereo not drawn) [Example 136] | µM | 0.14 |
| CC1(C)C(=O)N(C2CC3CCC2C3)N1c1cccc(Cl)c1Cl (stereo not drawn) [Example 224] | µM | 0.044 |

* * *

target: human 11β-HSD1 (Homo sapiens, UniProt P28845); construct: The obtained PCR products of about 0.9 kbp, 1.2 kbp, and 0.9 kbp were subcloned into an expression vector pcDNA3.1+/Zeo; expressed in transfected cells; assay: Enzyme inhibitory activity, human 11β-HSD1 (lysate of stably expressing HEK293 cells, cortisol by competitive ELISA); assay type: biochemical; settings: Table 2; human 11β-HSD1, cell lysate, 37° C. for 1 hour; read-out: h HSD1 in vitro assay (IC50 uM)
measurement.kind: IC50 (µM)

| compound | measurement.kind | reading |
| --- | --- | --- |
| CC1(C)C(=O)N(C2C3CC4CC(C3)CC2C4)N1Cc1ccccc1Cl (stereo not shown) [Example 27] | IC50 | 0.03 |
| CC1(C)C(=O)N(C2C3CC4CC(C3)CC2C4)N1Cc1cccc([N+](=O)[O-])c1 (stereo not shown) [Example 29] | IC50 | 0.6 |
| Cc1cccc(N2N(C3C4CC5CC(C4)CC3C5)C(=O)C2(C)C)c1C (stereo not shown) [Example 207] | IC50 | 0.61 |
| CC1(C)C(=O)N(C2C3CC4CC(C3)CC2C4)N1Cc1ccc(C(F)(F)F)cc1 (stereo not shown) [Example 36] | IC50 | 0.69 |

* * *

molecular target: human 11β-HSD1 (Homo sapiens, UniProt P28845); construct: The obtained PCR products of about 0.9 kbp, 1.2 kbp, and 0.9 kbp were subcloned into an expression vector pcDNA3.1+/Zeo; expressed in transfected cells; assay: Enzyme inhibitory activity, human 11β-HSD1 (lysate of stably expressing HEK293 cells, cortisol by competitive ELISA); type: biochemical; details: Table 2; human 11β-HSD1, cell lysate, 37° C. for 1 hour; read-out: h HSD1 in vitro assay (IC50 uM)
Listed next: entries and their corresponding IC50.

| compound | IC50, µM |
| --- | --- |
| CC1(C)C(=O)N(C2C3CC4CC(C3)CC2C4)N1c1ccccc1O (stereo not drawn) | 0.56 |
| CC1(C)C(=O)N([C@H]2C3CC4CC2C[C@](O)(C4)C3)N1c1ccc(N)cc1 | 0.056 |
| Cc1ccc(C)c(CN2N(C3C4CC5CC(C4)CC3C5)C(=O)C2(C)C)c1 (stereo not drawn) | 0.054 |
| CC1(C)C(=O)N(C2C3CC4CC(C3)CC2C4)N1Cc1cccc(I)c1 (stereo not drawn) | 0.44 |
| CC1(C)C(=O)N(C2C3CC4CC(C3)CC2C4)N1Cc1cccc2ccccc12 (stereo not drawn) | 0.015 |
| CC1(C)C(=O)N(C2C3CC4CC(C3)CC2C4)N1C(=O)c1cc(Cl)cc(Cl)c1 (stereo not drawn) | 0.98 |
| CC1(C)C(=O)N(C2CCCCCC2)N1Cc1ccc(F)cc1Cl | 0.14 |
| CC1(C)C(=O)N(C2C3CC4CC(C3)CC2C4)N1Cc1ccc2ccccc2c1 (stereo not drawn) | 0.6 |
| CC1(C)C(=O)N(C2C3CC4CC(C3)CC2C4)N1CCCc1ccccc1 (stereo not drawn) | 0.45 |
| Cc1ccccc1CN1N(C2C3CC4CC(C3)CC2C4)C(=O)C1(C)C (stereo not drawn) | 0.047 |
| Cc1ccccc1N1N(C2C3CC4CC(C3)CC2C4)C(=O)C1(C)C (stereo not drawn) | 0.49 |
| CC1(C)C(=O)N(C2C3CC4CC(C3)CC2C4)N1c1ccc(N)cc1 (stereo not drawn) | 0.057 |
| CC1(C)C(=O)N([C@H]2C3CC4CC2C[C@](O)(C4)C3)N1Cc1cc(F)ccc1Cl | 0.12 |
| CC1(C)C(=O)N(C2CCCCCCC2)N1Cc1ccccc1Cl | 0.021 |
| COc1ccccc1CN1N(C2C3CC4CC(C3)CC2C4)C(=O)C1(C)C (stereo not drawn) | 0.082 |
| CC1(C)C(=O)N(C2C3CC4CC(C3)CC2C4)N1Cc1cccc(Cl)c1Cl (stereo not drawn) | 0.072 |
| CC1(C)C(=O)N(C2C3CC4CC(C3)CC2C4)N1Cc1ccccc1[N+](=O)[O-] (stereo not drawn) | 0.2 |
| CC1(C)C(=O)N(C2CC3CCC2C3)N1Cc1cc(Cl)ccc1Cl (stereo not drawn) | 0.13 |
